Reference for the values: PubChem BioAssay AID2305

# Test system: P. falciparum 3D7 growth, pLDH absorbance
# assay-comment: blood-stage malaria parasite growth potency – strain 3D7, dose response (AID 2305)
Please provide measured IC50 for the entries that follow.
Give bare numbers, in nM.

Past entries and their recorded results:
{"molecule": "CC(C)(CN)c1nc(-c2ccc(Cl)c(O)c2)c(-c2ccnc(N)n2)[nH]1", "target-system": "P. falciparum 3D7 growth, pLDH absorbance", "unit-annotation": "nM", "value-reported": 980}
{"molecule": "O=C(NNC(=O)c1ccc(CCN2CCC(c3nc(COCC(F)(F)F)c(-c4ccc(F)cc4)o3)CC2)cc1)Nc1ccc(Oc2ccccc2)cc1", "target-system": "P. falciparum 3D7 growth, pLDH absorbance", "unit-annotation": "nM", "value-reported": 710}
{"molecule": "CCNc1cc(C)nc(Nc2ccc(C)cc2)n1", "target-system": "P. falciparum 3D7 growth, pLDH absorbance", "unit-annotation": "nM", "value-reported": 730}
{"molecule": "COc1ccc(CNCCc2cccs2)cc1-c1cccc(S(=O)(=O)NCCN2CCCC2)c1", "target-system": "P. falciparum 3D7 growth, pLDH absorbance", "unit-annotation": "nM", "value-reported": 880}

Give measured IC50 for every item shown.
1. CS(=O)(=O)N1CC2(CCN(CCC(NC(=S)Nc3ccccc3)c3ccc(Cl)c(Cl)c3)CC2)c2ccccc21 (centres undefined)
2. CC(C)(CN)c1nc(-c2ccc(Br)c(O)c2)c(-c2ccncc2)[nH]1
3. FC(F)(F)c1ccc2nc(-c3ccc(-c4cccc(CNCC5CCCO5)c4)s3)[nH]c2c1 (centres undefined)
4. CC(C)CNCc1cccc(-c2ccccc2CN(C(=O)Nc2ccccc2)C2CCN(Cc3ccccc3)CC2)c1
5. COc1ccc(Cc2cnc3nc(N)nc(N)c3c2C)cc1OC

Response:
1: 830; 2: 970; 3: 370; 4: 640; 5: 10

###

# Test system: P. falciparum 3D7 growth, pLDH absorbance
# assay-comment: blood-stage malaria parasite growth potency – strain 3D7, dose response (AID 2305)
Please provide measured pIC50 for the entries that follow.
One number for each entry, as −log10 of the molar value.

Past entries and their recorded results:
{"molecule": "O=C(Cn1c(CCc2cccc(F)c2F)nc(=O)c2cccnc21)N(Cc1ccc(-c2ccc(C(F)(F)F)cc2)cc1)C1CCN(C2CCSCC2)CC1", "target-system": "P. falciparum 3D7 growth, pLDH absorbance", "value-type": "pIC50", "value-reported": 6.64}
{"molecule": "O=C(NC1CCC(CN2CCC(c3c[nH]c4ccccc34)CC2)CC1)c1cc2cccc([N+](=O)[O-])c2[nH]1 (centres undefined)", "target-system": "P. falciparum 3D7 growth, pLDH absorbance", "value-type": "pIC50", "value-reported": 6.47}
{"molecule": "CN1CCN(c2ccc(-c3cccc(NC(=O)c4cccc([N+](=O)[O-])c4)c3)nn2)CC1", "target-system": "P. falciparum 3D7 growth, pLDH absorbance", "value-type": "pIC50", "value-reported": 6.28}

Give measured pIC50 for every item shown.
1. CN(C)CCNc1cc(-c2cccnc2)nc(-c2ccncc2)n1
2. COc1ccccc1CN1CCC(CNC(=O)c2cc(-c3cccc(C(F)(F)F)c3)cs2)C1 (centres undefined)
3. CCCCCCN1CCC(NCc2cccc([N+](=O)[O-])c2)CC1

Response:
[6.22, 5.88, 6.17]

Give measured pIC50 for every item shown.
1. CN(C)CC(O)COc1ccc(Nc2ncc([N+](=O)[O-])c(Nc3ccccc3O)n2)cc1 (centres undefined)
2. O=C1NC(=O)C(c2ccc(Cl)cc2)=C1Nc1cccc(S(=O)(=O)C(F)(F)F)c1

Response:
1: 6.12; 2: 6.13

Query: GET /values?readout=pIC50&item= CCOc1ccccc1CNc1nccc(NCc2ccc(Cl)cc2Cl)n1
Response: 5.96
